Tested on: PANC-1 cell line
Experiment: cells
Settings: read-out: PANC-1 IC50; PANC-1 pancreatic tumor cell line
Description: The task of IC50 assessment for the natural products isolated in this study against the PANC-1 tumor cells line began immediately following the purification and characterization of each pyrrolo[4,3,2-de]quinoline obtained (FIG. 3). […] However, a sample of ammosamide B (17) was obtained from the NCI Molecular Targets Laboratory. Two additional clinically used compounds, etoposide and teniposide were also run in the assay. […]
reportedMetric: IC50 (µM)
API: value field is a number in µM; no unit string.

compound	IC50 [µM]
C[N+]1=C2C=C(N)C(=O)c3[nH]cc(c32)CC1.[Cl-]	0.73
CN1CCc2cn(C)c3c2C1=CC(=O)C3=O	160
Cn1cc2c3c1C(=O)C(N/C=C/c1ccc(O)cc1)=CC3=[N+](C)CC2	6.2
CN1C(=O)c2cc(C(N)=O)nc3c(N)c(Cl)c(N)c1c23 [ammosamide B (17), ammosamide B, reference compound]	26
C[N+]1=C2C=C(N/C=C/c3ccc(O)cc3)C(=O)c3[nH]cc(c32)CC1.O=C([O-])C(F)(F)F	1.9
Cn1cc2c3c1C(=O)C(N)=CC3=NCC2	0.45
CN1CCc2c[nH]c3c2C1=CC(=O)C3=O	19
Cn1cc2c3c1C(=O)C(NCCc1ccc(O)cc1)=CC3=NCC2	0.56

Just so you know, measured IC50 for COc1cc([C@@H]2c3cc4c(cc3[C@@H](O[C@@H]3O[C@@H]5CO[C@@H](c6cccs6)O[C@H]5[C@H](O)[C@H]3O)[C@H]3COC(=O)[C@H]23)OCO4)cc(OC)c1O [teniposide, reference compound] came out at 0.041

Value of IC50 reported for the compound C[N+]1=C2C=C(NCCc3ccc(O)cc3)C(=O)c3[nH]cc(c32)CC1 is 0.054

// recorded IC50 for Cn1cc2c3c1C(=O)C(N)=CC3=[N+](C)CC2.O=C([O-])C(F)(F)F : 3.6

Reported IC50 ( Cn1cc2c3c1C(=O)C(NCCc1ccc(O)cc1)=CC3=[N+](C)CC2.[Cl-] ) = 0.3
